System: UO-31 renal
Assay: NCI-60 one-dose screen, 48 h
Conditions: 10 µM unless noted
Compounds without any hit were thinned out: in the full panel of roughly 83,000, 20% have a hit. Activity calls are given as the source filed them. The calls were made as follows: active = growth percent below 10; inactive = the rest.
Returns: one label drawn from active, inactive

Hey, what did the test say about CN=S(=O)(OCCCCCOS(=O)(=NC)c1ccc(C)cc1)c1ccc(C)cc1 (stereo unspecified) ?
inactive

Hey, what did the test say about CNc1ccccc1C(N)=O ?
inactive

Hey, what did the test say about C=CC(=O)OC1CCC(C(C)(C)CC)CC1 (stereo unspecified) ?
inactive

Hey, what did the test say about Cc1c(Cl)cccc1NC(=S)NC(=O)c1ccccc1 ?
inactive

Hey, what did the test say about O=S(=O)(OCCOS(=O)(=O)c1ccccc1)c1ccccc1 ?
inactive

Hey, what did the test say about C[C@H](CCC[C@H](C)OS(=O)(=O)c1ccccc1)OS(=O)(=O)c1ccccc1 ?
inactive

Hey, what did the test say about CN(C)CCOC(=O)Nc1ccc(Cc2ccc(NC(=O)OCCN(C)C)cc2)cc1 ?
inactive

Hey, what did the test say about O=C(Nc1ccccc1)c1ccco1 ?
inactive

Hey, what did the test say about O=C1CSc2ccccc2N1 ?
inactive

Hey, what did the test say about CC1(C)OC2C(CO)OC(n3ccc(=O)[nH]c3=O)C2O1 (stereo unspecified) ?
inactive

Hey, what did the test say about O=C1NCC2CCCC1C2 (stereo unspecified) ?
inactive

Hey, what did the test say about Cn1c(=O)c2[nH]c(CC(=O)O)nc2n(C)c1=O ?
inactive

Hey, what did the test say about N#Cc1ccc(OC(=O)Nc2cc(Cl)cc(Cl)c2)cc1 ?
active

Hey, what did the test say about Cc1cc(C(=O)NN)c(C#N)c(=O)[nH]1 ?
inactive

Hey, what did the test say about CCCNS(=O)(=O)c1ccc(Cl)cc1 ?
inactive

Hey, what did the test say about CCN(CC)c1ccc2nc3ccc(N=Nc4ccc(N(C)C)cc4)cc3[n+](-c3ccccc3)c2c1 ?
active

Hey, what did the test say about COc1cccc(C(=O)NNC(=O)c2cccc3ccccc23)c1 ?
inactive

Hey, what did the test say about O=C(NCc1ccccc1)/C(=C/c1ccccc1)NC(=O)c1ccccc1 ?
inactive

Hey, what did the test say about CC12CCC3c4ccc(O)cc4CCC3C1CCC2=O (stereo unspecified) ?
inactive

Hey, what did the test say about O=[N+]([O-])c1c(O)c(CNCCCO)cc(CNCCCO)c1O ?
inactive

Hey, what did the test say about Nc1ncc([N+](=O)[O-])cn1 ?
inactive

Hey, what did the test say about S=C(Sc1ccc(Cl)cc1)Sc1ccc(Cl)cc1 ?
active

Hey, what did the test say about Cc1[nH]c(=S)[nH]c(=O)c1C ?
inactive

Hey, what did the test say about CCOc1ccc(C(=O)NCC(C)C)cc1 ?
inactive

Hey, what did the test say about CC(C)(N)CO[C@H]1C[C@H]2CC[C@@]1(C)C2(C)C ?
inactive

Hey, what did the test say about N#C/C(=C\c1ccc2c(c1)OCO2)c1ccccc1 ?
inactive

----------
So I've got a bunch of compounds here, and I need their growth values.
System: MOLT-4 leukemia
Experiment: NCI-60 one-dose screen, 48 h (100 = growth as untreated, 0 = no growth, -100 = all killed)
Conditions: 10 µM unless noted
About 83,000 compounds went through this panel and 20% of them were active in at least one assay; those are over-represented in the sample as a whole.
Reply numerically in %, unit not repeated.

Under MOLT-4 leukemia: report growth of O=C(O)Cc1cccc2ccccc12 .
9.03

Under MOLT-4 leukemia: report growth of Nc1ccn(C2OC(CO)C(O)C2F)c(=O)n1 (centres undefined) .
-15.5

Under MOLT-4 leukemia: report growth of CCCCN(C=S)CCCC .
91.4

Under MOLT-4 leukemia: report growth of CSCCC(NC(=O)C(Cl)Cl)C(=O)O (centres undefined) .
90.5

Under MOLT-4 leukemia: report growth of Cc1c(-c2ccc(C3CCCCC3)cc2)nc2ccc(F)cc2c1C(=O)O .
15.2

Under MOLT-4 leukemia: report growth of Clc1ccc(/C=C/c2ccccn2)cc1 .
86.9

Under MOLT-4 leukemia: report growth of CC1CCC(C(C)(C)[N+](C)(C)C)CC1 (centres undefined) .
101

Under MOLT-4 leukemia: report growth of C=CCS(C)(=O)=O .
109

Under MOLT-4 leukemia: report growth of CC(=O)c1cccs1 .
95.4

Under MOLT-4 leukemia: report growth of C/C(=N\Nc1ccc([N+](=O)[O-])cc1[N+](=O)[O-])c1ccc(Br)cc1 .
104

Under MOLT-4 leukemia: report growth of NCC(O)C(O)C(O)C(O)CO (centres undefined) .
101

Under MOLT-4 leukemia: report growth of Cc1ccc(S(=O)(=O)CCCl)cc1 .
95.5

Under MOLT-4 leukemia: report growth of CC(C)Sc1ncnc2nc[nH]c12 .
146

Under MOLT-4 leukemia: report growth of CC(=O)c1cc(O)ccc1O .
92.8

----------
Test system: OVCAR-8 ovarian
Experiment: NCI-60 one-dose screen, 48 h (100 = growth as untreated, 0 = no growth, -100 = all killed)
Settings: 10 µM unless noted
This is part of a sample that, as a whole, favours compounds with a hit. Of some 83,000 tested, about 20% had one in any assay.
measured.parameter: growth (%)
Reply numerically in %, unit not repeated.

Under OVCAR-8 ovarian: report growth of COC(=O)c1ccc([N+](=O)[O-])c(C)c1 .
108

Under OVCAR-8 ovarian: report growth of CCOC(=O)C(COS(C)(=O)=O)(COS(C)(=O)=O)C(=O)OCC .
103

Under OVCAR-8 ovarian: report growth of CCOC(=O)CNC(=O)Sc1ccc(C(C)(C)C)cc1 .
94

Under OVCAR-8 ovarian: report growth of CC(C)Sc1ncnc2nc[nH]c12 .
107

Under OVCAR-8 ovarian: report growth of Cc1ccc(N2C(=O)c3cccc4c(N)c(S(=O)(=O)O)cc(c34)C2=O)cc1 .
107

Under OVCAR-8 ovarian: report growth of O=Cc1ccc(O)c(O)c1 .
95.8

Under OVCAR-8 ovarian: report growth of CCCCOC(=O)c1ccccc1O .
107

Under OVCAR-8 ovarian: report growth of Nc1c(O)c(S(=O)(=O)O)c(O)c2c1C(=O)c1ccccc1C2=O .
27.8

Under OVCAR-8 ovarian: report growth of CC1CC2C3CCC4=CC(=O)CCC4(C)C3CCC2(C)C1(O)C(=O)CO (stereo not drawn) .
105

Under OVCAR-8 ovarian: report growth of Nc1cccc2cccc(O)c12 .
86.7

Under OVCAR-8 ovarian: report growth of Cc1c(Cl)cccc1N=C=S .
95.6

Under OVCAR-8 ovarian: report growth of O=C1C=C(c2ccccc2)C(O)(c2ccccc2)C1 (stereo not drawn) .
106

Under OVCAR-8 ovarian: report growth of CC(CO)(CO)C(=O)O .
111

----------
Tested on: UACC-62 melanoma
Assay: NCI-60 one-dose screen, 48 h
Details: 10 µM unless noted
This is part of a sample that, as a whole, favours compounds with a hit. Of some 83,000 tested, about 20% had one in any assay. The source made the active and inactive calls. How the source made its calls: active means growth percent below 10; inactive means the rest.
Returns: one label drawn from yes (1) for active, no (0) for inactive

Hey, what did the test say about C[n+]1cc2cc3c(cc2c2ccccc21)OCO3 ?
no (0)

Hey, what did the test say about OCc1cccnc1 ?
no (0)

Hey, what did the test say about CC(=O)Nc1ncc(S(=O)(=O)c2ccc([N+](=O)[O-])cc2)s1 ?
no (0)

Hey, what did the test say about Oc1ccc(N=Cc2ccc(OCc3ccccc3)cc2)cc1 ?
no (0)

Hey, what did the test say about Cc1ccc(C)c2c1CCC2=O ?
no (0)

Hey, what did the test say about C=CCOc1ccc(Cl)cc1Cl ?
no (0)

Hey, what did the test say about C=CCNC(=S)N/C=C(/C(=O)c1ccccc1)c1ccccc1 ?
no (0)

Hey, what did the test say about Cc1ccc(S(=O)(=O)Oc2ccc3sc4c(CO)ccc(NCCN(C)C)c4c(=O)c3c2)cc1 ?
yes (1)

Hey, what did the test say about c1cc(CNCCNCc2ccncc2)ccn1 ?
no (0)

Hey, what did the test say about CC(=O)c1cccc(NS(=O)(=O)c2ccc(C)cc2)c1 ?
no (0)

Hey, what did the test say about O=[N+]([O-])c1c(O)c(CNCCCO)cc(CNCCCO)c1O ?
no (0)

Hey, what did the test say about CCCC1OC(c2ccco2)OCC1CC (configuration not stated) ?
no (0)

Hey, what did the test say about Cc1c(Cl)cccc1N=C=S ?
no (0)

Hey, what did the test say about COC1OC(C(COC(C)=O)OC(C)=O)C(OC(C)=O)C(OC(C)=O)C1OC(C)=O (configuration not stated) ?
no (0)

Hey, what did the test say about COC1OC(CO)C(OC)C(O)C1O (configuration not stated) ?
no (0)

Hey, what did the test say about COc1ccc2c(ccc[n+]2C)c1 ?
no (0)

Hey, what did the test say about NC(=S)N/N=C/c1ccc(OC(=O)COc2ccc(Cl)cc2)cn1 ?
yes (1)

Hey, what did the test say about CCC(=O)C1C(=O)c2ccccc2C1=O ?
no (0)

Hey, what did the test say about COC1=C(OC)C(=O)C(SC/C=C(\C)CCCC(C)CCCC(C)CCCC(C)C)=CC1=O (configuration not stated) ?
no (0)

Hey, what did the test say about O=c1nc(Nc2cccc(Cl)c2)oc2cc(Cl)oc(=O)c12 ?
no (0)

Hey, what did the test say about CC1CN(CCO)CC(C)O1 (configuration not stated) ?
no (0)

Hey, what did the test say about CC12CCC3c4ccc(O)cc4CCC3C1CCC2=O (configuration not stated) ?
no (0)

Hey, what did the test say about COC(=O)C1(CC(C)=O)NC(=S)NC(=O)C1C#N (configuration not stated) ?
no (0)

Hey, what did the test say about CC(=O)Nc1ccc(O)c(C)c1 ?
no (0)

Hey, what did the test say about COC(CCCl)c1ccc(Cl)cc1 (configuration not stated) ?
no (0)

Hey, what did the test say about COc1cc(OC)c2cc(C(=O)c3ccc(C#N)cc3)c(=O)oc2c1 ?
no (0)

Hey, what did the test say about CC(C)C(C)(C)C(=O)C(C)(C)C(C)(C)C ?
no (0)
